- System: HCV pseudoparticles (genotype 1a HCV E1 and E2 envelope, H77C isolate)
- Experiment description: microbe, parasite or virus in culture
- Format: cell-based
- Test parameters: Hepatitis C virus, Huh-7, 48 h, class symbol; HCV pseudoparticles genotype 1a (H77C), Huh7 cells, luciferase 2 days after infection, average of duplicates
pEC50: −log10 of the molar value.
Experimental readout: pEC50

INPUT: I'm curious: which pEC50 was measured for CC(C)(C)OC(=O)NCC[C@H](NC(=O)c1ccc2cc1OCCCCCCOc1ccc(cc1)CNc1nc(nc(OCC(F)(F)F)n1)N2)C(=O)O [Example 1561] tested on HCV pseudoparticles (genotype 1a HCV E1 and E2 envelope, H77C isolate)?
OUTPUT: 7.00 to 10.00

INPUT: Requested read-out pEC50, target or system HCV pseudoparticles (genotype 1a HCV E1 and E2 envelope, H77C isolate), entry COC(=O)c1ccc2cc1OCCCCCCOc1cccc(c1)CNc1nc(nc(OCC(F)(F)F)n1)N2 [Example 1803]
OUTPUT: 4.30 to 6.00

INPUT: Please tell me: pEC50 of CN(C)CC(C)(C)CNC(=O)c1ccc2cc1OCCOCCOCCOc1ccc(cc1)CNc1nc(nc(OCC(F)(F)F)n1)N2 [Example 1011] , system HCV pseudoparticles (genotype 1a HCV E1 and E2 envelope, H77C isolate)?
OUTPUT: 7.00 to 10.00

INPUT: Param readout = pEC50; param system = HCV pseudoparticles (genotype 1a HCV E1 and E2 envelope, H77C isolate); param query = FC(F)(F)COc1nc2nc(n1)NC1(CC1)c1ccc(cc1)OC/C=C/COc1cccc(c1)N2 [Example 2008] ; response: value
OUTPUT: 7.00 to 10.00

INPUT: Quick check: pEC50 on HCV pseudoparticles (genotype 1a HCV E1 and E2 envelope, H77C isolate), item O=C(NCC1CCCN1)c1ccc2cc1OCCCCCCOc1ccc(cc1)CNc1nc(nc(OCC(F)(F)F)n1)N2 (centres unmarked) [Example 1503] ?
OUTPUT: 7.00 to 10.00

INPUT: Enter reported pEC50 observed with HCV pseudoparticles (genotype 1a HCV E1 and E2 envelope, H77C isolate) for COC(=O)[C@H](CNS(C)(=O)=O)NC(=O)c1ccc2cc1OCCCCCCOc1ccc(cc1)CNc1nc(nc(OCC(F)(F)F)n1)N2 [Example 1702]
OUTPUT: 7.00 to 10.00

New cases:
INPUT: API: value(readout= pEC50, system= HCV pseudoparticles (genotype 1a HCV E1 and E2 envelope, H77C isolate), query= O=C(NC(C(=O)O)C1CCCNC1)c1ccc2cc1OCCCCCCOc1ccc(cc1)CNc1nc(nc(OCC(F)(F)F)n1)N2 (centres unmarked) [Example 1552] )
OUTPUT: 7.00 to 10.00

INPUT: Identify the measured pEC50 of CC(C)(C)OC(=O)N1CCCOc2ccc(cc2)CNc2nc(nc(OCC(F)(F)F)n2)Nc2ccc(C(=O)NCC3(CN4CCCC4)CC3)c(c2)OCCC1 [Example 3003] for HCV pseudoparticles (genotype 1a HCV E1 and E2 envelope, H77C isolate).
OUTPUT: 7.00 to 10.00

INPUT: Identify the measured pEC50 of CC(C)(C)OC(=O)N[C@@H](CCNC(=O)c1ccc2cc1OCCCCCCOc1ccc(cc1)CNc1nc(nc(OCC(F)(F)F)n1)N2)C(=O)OC(C)(C)C [Example 1325] for HCV pseudoparticles (genotype 1a HCV E1 and E2 envelope, H77C isolate).
OUTPUT: 7.00 to 10.00

INPUT: What value of pEC50 on HCV pseudoparticles (genotype 1a HCV E1 and E2 envelope, H77C isolate) does CN1CCCOc2ccc(cc2)CNc2nc(nc(OCC(F)(F)F)n2)Nc2ccc(C(=O)NCC3(CN4CCCC4)CC3)c(c2)OCCC1 [Example 3010] have?
OUTPUT: 7.00 to 10.00

INPUT: Kindly state the measured pEC50 obtained for NC[C@@H](NC(=O)c1ccc2cc1OCCCCCCOc1ccc(cc1)CNc1nc(nc(OCC(F)(F)F)n1)N2)C(=O)O [Example 1555] with HCV pseudoparticles (genotype 1a HCV E1 and E2 envelope, H77C isolate).
OUTPUT: 6.00 to 7.00

INPUT: Which pEC50 is reported with HCV pseudoparticles (genotype 1a HCV E1 and E2 envelope, H77C isolate) for this entry: CC(C)(C)OC(=O)N1CCCC(NC(=O)c2ccc3cc2OCCCCCCCCOc2ccc(cc2)CNc2nc(nc(OCC(F)(F)F)n2)N3)C1 (centres unmarked) [Example 1012] ?
OUTPUT: 7.00 to 10.00

INPUT: Under HCV pseudoparticles (genotype 1a HCV E1 and E2 envelope, H77C isolate): pEC50 value of O=C1COCC(=O)NCc2cccc(c2)Nc2nc(nc(OCC(F)(F)F)n2)NCCN1 [Example 1015] ?
OUTPUT: 4.30 to 6.00

INPUT: Lab request: please report pEC50 under test system HCV pseudoparticles (genotype 1a HCV E1 and E2 envelope, H77C isolate) for CC(C)(C)OC(=O)N1CCC(CNC(=O)c2ccc3cc2OCCCCCCOc2ccc(cc2)CNc2nc(nc(OCC(F)(F)F)n2)N3)C1 (centres unmarked) [Example 1305]
OUTPUT: 7.00 to 10.00

INPUT: Item CC(=O)N1CCCCOc2cc(ccc2C(=O)NCC2(CN3CCCC3)CC2)Nc2nc(nc(OCC(F)(F)F)n2)NCc2ccc(cc2)OCCC1 [Example 3022] with HCV pseudoparticles (genotype 1a HCV E1 and E2 envelope, H77C isolate) - pEC50?
OUTPUT: 7.00 to 10.00

INPUT: # get_value(readout= pEC50, system= HCV pseudoparticles (genotype 1a HCV E1 and E2 envelope, H77C isolate)) for COC(=O)N1CCCCOc2cc(ccc2C(=O)NCC2(CN3CCCC3)CC2)Nc2nc(nc(OCC(F)(F)F)n2)NCc2ccc(cc2)OCCC1 [Example 3019]
OUTPUT: 7.00 to 10.00

INPUT: Which measured pEC50 belongs to O=C(NCC1(C(=O)O)CCNCC1)c1ccc2cc1OCCCCCCOc1ccc(cc1)CNc1nc(nc(OCC(F)(F)F)n1)N2 [Example 1504] , tested on HCV pseudoparticles (genotype 1a HCV E1 and E2 envelope, H77C isolate)?
OUTPUT: 7.00 to 10.00

INPUT: Field: pEC50 (HCV pseudoparticles (genotype 1a HCV E1 and E2 envelope, H77C isolate)). Entry: COC(=O)c1ccc2cc1OCCCCOc1cccc(c1)CNc1nc(nc(OCC(F)(F)F)n1)N2 [Example 1801]
OUTPUT: 6.00 to 7.00

INPUT: What is its pEC50 for HCV pseudoparticles (genotype 1a HCV E1 and E2 envelope, H77C isolate)? Entry: CCNC(=O)N1CCCOc2ccc(cc2)CNc2nc(nc(OCC(F)(F)F)n2)Nc2ccc(C(=O)NCC3(CN4CCCC4)CC3)c(c2)OCCC1 [Example 3008]
OUTPUT: 7.00 to 10.00

INPUT: # returns recorded pEC50 (system: HCV pseudoparticles (genotype 1a HCV E1 and E2 envelope, H77C isolate)) for FC(F)(F)COc1nc2nc(n1)NC1(CC1)c1ccc(cc1)OCCCCOc1cccc(c1)N2 [Example 2009]
OUTPUT: 7.00 to 10.00

INPUT: Identify the measured pEC50 of O=C(NCC1(CN2CCCC2)CC1)c1ccc2cc1OCCCCCCNc1nc(nc(OCC(F)(F)F)n1)N2 [Example 4001] for HCV pseudoparticles (genotype 1a HCV E1 and E2 envelope, H77C isolate).
OUTPUT: 4.30 to 6.00

INPUT: Report pEC50 for CC(C)(C)NC(=O)N1CCCCOc2cc(ccc2C(=O)NCC2(CN3CCCC3)CC2)Nc2nc(nc(OCC(F)(F)F)n2)NCc2ccc(cc2)OCCC1 [Example 3018] tested on HCV pseudoparticles (genotype 1a HCV E1 and E2 envelope, H77C isolate).
OUTPUT: 7.00 to 10.00

INPUT: Return pEC50 measured with HCV pseudoparticles (genotype 1a HCV E1 and E2 envelope, H77C isolate) given this molecule: O=C(c1ccc2cc1OCCCCCCCCOc1ccc(cc1)CNc1nc(nc(OCC(F)(F)F)n1)N2)N1CCC2(CCNC2)C1 (centres unmarked) [Example 1153]
OUTPUT: 6.00 to 7.00

INPUT: Provide value of pEC50 for this record tested with HCV pseudoparticles (genotype 1a HCV E1 and E2 envelope, H77C isolate): CCOC(=O)[C@H]1CN(C(=O)OC(C)(C)C)C[C@H]1NC(=O)c1ccc2cc1OCCCCCCOc1ccc(cc1)CNc1nc(nc(OCC(F)(F)F)n1)N2 [Example 1320]
OUTPUT: 7.00 to 10.00

INPUT: Notebook entry, HCV pseudoparticles (genotype 1a HCV E1 and E2 envelope, H77C isolate) assay: pEC50 of O=C(NCC1CCNC1)c1ccc2cc1OCCCCCCOc1ccc(cc1)CNc1nc(nc(OCC(F)(F)F)n1)N2 (centres unmarked) [Example 1501] = ?
OUTPUT: 7.00 to 10.00

INPUT: Recorded pEC50 for CCCN1CCCOc2ccc(cc2)CNc2nc(nc(OCC(F)(F)F)n2)Nc2ccc(C(=O)NCC3(CN4CCCC4)CC3)c(c2)OCCC1 [Example 3012] with HCV pseudoparticles (genotype 1a HCV E1 and E2 envelope, H77C isolate), please?
OUTPUT: 7.00 to 10.00
